PROTOCOL: Metabolic stability in human liver microsomes assessed as intrinsic clearance measured for 75 to 130 mins by LC-MS/MS analysis
Type: ADME, Microsome
MEASUREMENT CONDITIONS: liver microsomes, time 75-130 min, read-out: CLH
Note to self: values exactly at 4 µL/min/mg are YES. So microsomal CLint at or above 4 µL/min/mg is YES, below is NO.

// below: answered compounds
{"CHEMICAL SMILES": "Nc1ccccc1NC(=O)c1ccc(CN2CCC/C(=C\\c3ccc(Cl)cc3)C2=O)cc1", "GROUP": "YES"}
{"CHEMICAL SMILES": "Nc1ccccc1NC(=O)c1ccc(CN2CCC/C(=C\\c3ccccc3)C2=O)cc1", "GROUP": "YES"}
{"CHEMICAL SMILES": "Nc1ccccc1NC(=O)c1ccc(CN2CCC/C(=C\\c3cccnc3)C2=O)cc1", "GROUP": "YES"}
{"CHEMICAL SMILES": "Nc1cc(F)ccc1NC(=O)c1ccc(CN2CC/C(=C\\c3ccccc3)C2=O)cc1", "GROUP": "YES"}
{"CHEMICAL SMILES": "Nc1ccccc1NC(=O)c1ccc(CN2CCC/C(=C\\c3ccncc3)C2=O)cc1", "GROUP": "NO"}
{"CHEMICAL SMILES": "Nc1ccccc1NC(=O)c1ccc(CN2CCC/C(=C\\c3ccccn3)C2=O)cc1", "GROUP": "NO"}

Identify whether the reported microsomal CLint of the following compound is 4 µL/min/mg or greater: Nc1ccccc1NC(=O)c1ccc(CN2CCC/C(=C\c3ccccc3Cl)C2=O)cc1
YES

Does the compound Nc1ccccc1NC(=O)c1ccc(CN2CCC/C(=C\c3ccco3)C2=O)cc1 have recorded microsomal CLint that is 4 µL/min/mg or more?
YES

---

So I've got a bunch of compounds here, and I need their bioavailability values.
PROTOCOL: Oral bioavailability in ICR mouse at 25 mg/kg measured upto 24 hrs by LC-MS/MS analysis
Assay type: ADME, organism-based
MEASUREMENT CONDITIONS: in vivo
Note: state the figure and append the unit.

{"CHEMICAL SMILES": "Nc1ccccc1NC(=O)c1ccc(CN2CCC/C(=C\\c3ccccn3)C2=O)cc1", "bioavailability": "39.9%"}

# ---- query compound ----
Recall and state the measured bioavailability for Nc1cc(F)ccc1NC(=O)c1ccc(CNC(=O)/C=C/c2cccnc2)cc1 .
20.8%

---

System: NCI-H441
PROTOCOL: Antiproliferative activity against human NCI-H441 cells incubated for 72 hrs by luminescence assay
Assay type: functional, cell-based
MEASUREMENT CONDITIONS: NCI-H441, 72 h
I'd appreciate it if you could supply IC50 values for the items below.
Numbers only, in nM.

{"CHEMICAL SMILES": "Nc1cc(F)ccc1NC(=O)c1ccc(CNC(=O)/C=C/c2cccnc2)cc1", "REPORTED VALUE": 2620}

Let us examine a further case.
GET IC50 | system: NCI-H441 | item: Nc1ccccc1NC(=O)c1ccc(CN2CCC/C(=C\c3ccccn3)C2=O)cc1
2620

---

PROTOCOL: Cmax in ICR mouse at 10 mg/kg, po measured upto 24 hrs by LC-MS/MS analysis
Assay type: ADME, organism-based
Design: dose 10 mg/kg, time < 24 hrs, route po
MEASUREMENT CONDITIONS: in vivo
MEASURED PARAMETER: Cmax (ng/mL)
Numbers only, in ng/mL.

Supply Cmax value. Item: Cl.Nc1ccccc1NC(=O)c1ccc(CN2CCC/C(=C\c3ccccn3)C2=O)cc1
3960

---

PROTOCOL: Metabolic stability in dog liver microsomes assessed as half life measured for 75 to 130 mins by LC-MS/MS analysis
Assay type: ADME, Canis lupus familiaris, Microsome
MEASUREMENT CONDITIONS: time 75-130 min
MEASURED PARAMETER: half-life (h)
Give bare numbers, in h.

Give the reported half-life for this compound. Nc1ccccc1NC(=O)c1ccc(CN2CCC/C(=C\c3ccccn3)C2=O)cc1
17.9

---

PROTOCOL: MRT in ICR mouse at 10 mg/kg, po measured upto 24 hrs by LC-MS/MS analysis
Type: ADME, organism-based
MEASUREMENT CONDITIONS: in vivo
MEASURED PARAMETER: MRT (min)
Give bare numbers, in min.

Supply measured MRT of Cl.Nc1ccccc1NC(=O)c1ccc(CN2CCC/C(=C\c3ccccn3)C2=O)cc1 in your reply.
55.1

---

PROTOCOL: AUC (0 to infinity) in CB.17 SCID mouse xenografted with human TMD8 cells at 100 mg/kg, po measured upto 24 hrs by LC-MS/MS analysis
Type: ADME, organism-based
Parameters: time < 24 hrs, dose 100 mg/kg, route po
MEASUREMENT CONDITIONS: in vivo
MEASURED PARAMETER: AUC(0-inf)
Give the number first and the unit second.

Provide one value: measured AUC(0-inf) of Nc1ccccc1NC(=O)c1ccc(CN2CCC/C(=C\c3ccccn3)C2=O)cc1
9770 ng·h/mL

---

PROTOCOL: MRT in ICR mouse at 100 mg/kg, po measured upto 24 hrs by LC-MS/MS analysis
Format: ADME, organism-based
MEASUREMENT CONDITIONS: in vivo
MEASURED PARAMETER: MRT (min)
One number for each entry, in min.

Give reported MRT value for Cl.Nc1ccccc1NC(=O)c1ccc(CN2CCC/C(=C\c3ccccn3)C2=O)cc1
53.8

---

PROTOCOL: Half life in monkey plasma at 10 mg/kg, po measured upto 24 hrs by LC-MS/MS analysis
Format: ADME, organism-based, Macaca fascicularis
MEASUREMENT CONDITIONS: cynomolgus monkey
MEASURED PARAMETER: half-life (h)
Answers are plain numbers, in h.

Report half-life, nothing else, for this compound: Cl.Nc1ccccc1NC(=O)c1ccc(CN2CCC/C(=C\c3ccccn3)C2=O)cc1
9.14

---

PROTOCOL: AUC (0 to t) in CB.17 SCID mouse xenografted with human TMD8 cells at 25 mg/kg, po measured upto 24 hrs by LC-MS/MS analysis
Assay type: ADME, organism-based
Design: dose 25 mg/kg, time < 24 hrs, route po
MEASUREMENT CONDITIONS: in vivo
MEASURED PARAMETER: AUC(0-t) at 24 h (µg·h/mL)
Give bare numbers, in µg·h/mL.

Return the recorded AUC(0-t) at 24 h value; entry: Nc1ccccc1NC(=O)c1ccc(CN2CCC/C(=C\c3ccccn3)C2=O)cc1
1.22

---

PROTOCOL: Half life in ICR mouse at 25 mg/kg, po measured upto 24 hrs by LC-MS/MS analysis
Type: ADME, organism-based
MEASUREMENT CONDITIONS: in vivo
Please go through the items and note down their half-life.
Answers are plain numbers, in h.

{"CHEMICAL SMILES": "Nc1ccccc1NC(=O)c1ccc(CN2CCC/C(=C\\c3ccccn3)C2=O)cc1", "MEASUREMENT UNIT": "h", "half-life": 4.4}

Field: next compound
Determine from records and report half-life for Nc1cc(F)ccc1NC(=O)c1ccc(CNC(=O)/C=C/c2cccnc2)cc1
4

---

PROTOCOL: Cmax in CB.17 SCID mouse xenografted with human TMD8 cells at 50 mg/kg, po measured upto 24 hrs by LC-MS/MS analysis
Assay type: ADME, organism-based
Parameters: dose 50 mg/kg, time < 24 hrs, route po
MEASUREMENT CONDITIONS: in vivo
MEASURED PARAMETER: Cmax (ng/mL)
One number for each entry, in ng/mL.

Provide one value: measured Cmax of Nc1ccccc1NC(=O)c1ccc(CN2CCC/C(=C\c3ccccn3)C2=O)cc1
14700

---

PROTOCOL: AUC (0 to infinity) in CB.17 SCID mouse xenografted with human TMD8 cells at 50 mg/kg, po measured upto 24 hrs by LC-MS/MS analysis
Assay type: ADME, organism-based
Parameters: dose 50 mg/kg, time < 24 hrs, route po
MEASUREMENT CONDITIONS: in vivo
MEASURED PARAMETER: AUC(0-inf)

Please list AUC(0-inf) recorded for the molecule Nc1ccccc1NC(=O)c1ccc(CN2CCC/C(=C\c3ccccn3)C2=O)cc1
9730 ng·h/mL

---

PROTOCOL: Half life in dog plasma at 1 mg/kg, iv measured upto 24 hrs by LC-MS/MS analysis
Assay type: ADME, organism-based, Canis lupus familiaris
MEASURED PARAMETER: half-life

Give half-life for Cl.Nc1ccccc1NC(=O)c1ccc(CN2CCC/C(=C\c3ccccn3)C2=O)cc1
1.65 h

---

PROTOCOL: MRT in ICR mouse at 2 mg/kg, iv measured upto 24 hrs by LC-MS/MS analysis
Type: ADME, organism-based
MEASUREMENT CONDITIONS: in vivo
MEASURED PARAMETER: MRT
Kindly write the number and append the unit.

Recall and state the measured MRT for Cl.Nc1ccccc1NC(=O)c1ccc(CN2CCC/C(=C\c3ccccn3)C2=O)cc1 .
24.1 min
